Ref: ChEMBL document CHEMBL2384906

Measured zone of inhibition at 20 µM of individual entries
test system: Bacillus cereus; assay: Antimicrobial activity against Bacillus cereus MTCC 7350 assessed as diameter of inhibition zone at 20 uM after 24 hrs by Kirby -Baur disc diffusion method; format: functional; conditions: MTCC 7350, 24 h, read-out: DIZ

SMILES STR	ASSAYED SYSTEM	zone of inhibition at 20 µM, mm
COc1cc(/C=C/C(CC(/C=C/c2ccc(O)c(OC)c2)=N/c2ccc(S(=O)(=O)Nc3nc(C)cc(C)n3)cc2)=N\c2ccc(S(=O)(=O)Nc3nc(C)cc(C)n3)cc2)ccc1O	Bacillus cereus	11
COc1cc(/C=C/C(CC(/C=C/c2ccc(O)c(OC)c2)=N/c2ccc(S(=O)(=O)Nc3cc(C)on3)cc2)=N\c2ccc(S(=O)(=O)Nc3cc(C)on3)cc2)ccc1O	Bacillus cereus	11
COc1cc(/C=C/C(O)=C/C(/C=C/c2ccc(O)c(OC)c2)=N/c2ccc(S(=O)(=O)Nc3ccccn3)cc2)ccc1O	Bacillus cereus	11
